target: HLA-A*2401 (human); test: inhibition of 125I-labelled standard peptide binding to purified HLA
Reported relative binding ratio (IC50 standard peptide / IC50 test peptide) values for a set of binders
Answer with a bare number; do not write a unit.

Sample answers from the record:
binder: EMLGSVVGNW [MAGE3 134-143 (position 134, 10 amino acids)]
valueObserved: 0.0017
//
binder: LYIFATCLGL [MAGE3 175-184 (position 175, 10 amino acids)]
valueObserved: 0.048
//
binder: NWQYFFPVIF [MAGE3 142-151 (position 142, 10 amino acids)]
valueObserved: 0.017

In plain terms, QYFFPVIF [MAGE3 144-151 (position 144, 8 amino acids)] has a documented relative binding ratio (IC50 standard peptide / IC50 test peptide) of 0.12
